Read-out: Cytochrome P450 4A22 (Homo sapiens) (UniProt Q5TCH4)
Assay: LTEA_HepaRG_CYP4A22: Life Technologies and Expression Analysis (LTEA) Assay for Cytochrome P450 4A22 (CYP4A22) using HepaRG (AID 2283495)
Conditions: mRNA level, 48 h; actives raise or lower the signal
Activity calls are given as the source filed them. The calls were made as follows: active = hit-call score of the fitted dose curve at least 0.9, where 1 is the maximum; inactive = score below 0.9.
measured_quantity: outcome

CC(C)N(C(=O)SCC(Cl)=C(Cl)Cl)C(C)C = inactive
COc1cc(OC)nc(Sc2cccc(Cl)c2C(=O)O)n1 = inactive
Cc1ccn2nc(S(=O)(=O)Nc3c(F)cccc3F)nc2n1 = inactive

###

Read-out: Signal transducer and activator of transcription 3 (Homo sapiens) (UniProt P40763)
Sequence (P40763 whole entry, looked up): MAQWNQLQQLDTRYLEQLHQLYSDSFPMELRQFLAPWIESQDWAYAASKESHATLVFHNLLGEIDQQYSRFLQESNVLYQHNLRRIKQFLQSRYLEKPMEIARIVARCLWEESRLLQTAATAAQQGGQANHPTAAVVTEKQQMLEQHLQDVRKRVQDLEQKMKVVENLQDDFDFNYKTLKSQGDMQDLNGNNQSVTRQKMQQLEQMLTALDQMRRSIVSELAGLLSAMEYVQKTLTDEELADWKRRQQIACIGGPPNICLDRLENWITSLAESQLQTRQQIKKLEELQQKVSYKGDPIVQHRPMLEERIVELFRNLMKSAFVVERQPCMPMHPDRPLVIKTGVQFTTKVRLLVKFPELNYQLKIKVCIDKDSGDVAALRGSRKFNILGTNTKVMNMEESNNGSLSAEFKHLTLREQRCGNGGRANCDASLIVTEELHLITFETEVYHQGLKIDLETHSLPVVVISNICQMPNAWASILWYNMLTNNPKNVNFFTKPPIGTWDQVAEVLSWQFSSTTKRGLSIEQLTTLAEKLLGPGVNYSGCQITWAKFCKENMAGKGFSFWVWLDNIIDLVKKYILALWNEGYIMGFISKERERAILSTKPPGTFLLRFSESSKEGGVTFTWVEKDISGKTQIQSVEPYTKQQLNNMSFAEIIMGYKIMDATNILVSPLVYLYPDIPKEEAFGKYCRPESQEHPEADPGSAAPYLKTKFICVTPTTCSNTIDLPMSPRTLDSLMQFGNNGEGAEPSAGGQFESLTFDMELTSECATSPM
Experiment: LTEA_HepaRG_STAT3: Life Technologies and Expression Analysis (LTEA) Assay for Signal transducer and activator of transcription (STAT3) using HepaRG (AID 2283529)
Conditions: mRNA level, 48 h; actives raise or lower the signal
Calls of active or inactive are those of the source. The calls were made as follows: active = hit-call score of the fitted dose curve at least 0.9, where 1 is the maximum; inactive = score below 0.9.
Hi! Could you answer with just one of these? active, inactive

CC(C1CC1)C(O)(Cn1cncn1)c1ccc(Cl)cc1 (stereo unspecified) = active

Each molecule tested received a call. Report the one for COc1cccc(C(=O)NN(C(=O)c2cc(C)cc(C)c2)C(C)(C)C)c1C . active

Each molecule tested received a call. Report the one for CCOP(=O)(OCC)Oc1cc(C)nc(C(C)C)n1 . inactive

Each molecule tested received a call. Report the one for C[Si](Cn1cncn1)(c1ccc(F)cc1)c1ccc(F)cc1 . inactive

###

Assay: Tanguay_ZF_120hpf_SNOU_legacy: (Legacy) Oregon State University Tanguay Lab 120 Hour Post-fertilization zebrafish Assay for Snout Malformation (AID 2283637)
Inconclusive results are not listed. Active and inactive are the calls of the source. Rule for the calls: active = hit-call score of the fitted dose curve at least 0.9, where 1 is the maximum; inconclusive = response in the unintended direction; inactive = score below 0.9.
measured_quantity: AC50

CCCSP(=O)(OCC)Oc1ccc(Br)cc1Cl (stereo not drawn) = inactive
Nc1c(Cl)cc([N+](=O)[O-])cc1Cl = 31.1 µM (active)
CC(C)[C@H](C(=O)O[C@H](C#N)c1cccc(Oc2ccccc2)c1)c1ccc(Cl)cc1 = 2.25 µM (active)
CN1COCN(Cc2cnc(Cl)s2)C1=N[N+](=O)[O-] = inactive
CCCCOC(=O)c1ccccc1C(=O)O = inactive

The compound COP(=O)(OC)C(O)C(Cl)(Cl)Cl (stereo not drawn) showed AC50 equal to inactive

The compound O=C(O)c1cc(Oc2ccc(C(F)(F)F)cc2Cl)ccc1[N+](=O)[O-] showed AC50 equal to inactive

The compound CC(C)=CC1C(C(=O)OCN2C(=O)C3=C(CCCC3)C2=O)C1(C)C (stereo not drawn) showed AC50 equal to inactive

###

Test: BSK_3C_Proliferation: Cell Proliferation Assessment in the BioMAP Diversity Plus: 3C Assay (AID 2283006)
Conditions: primary human endothelial cells (HUVEC)
Calls of active or inactive are those of the source. The calls were made as follows: active = hit-call score of the fitted dose curve at least 0.9, where 1 is the maximum; inactive = score below 0.9.
Hi! Could you answer with just one of these? active, inactive

CC1=NNC(=O)N(/N=C/c2cccnc2)C1 = inactive
CNC(=O)ON=C(C)SC = inactive
O=c1ccc(=O)[nH][nH]1 = inactive
CCCCSP(=O)(SCCCC)SCCCC = active
C[Si](Cn1cncn1)(c1ccc(F)cc1)c1ccc(F)cc1 = inactive
CCCSP(=O)(OCC)Oc1ccc(Br)cc1Cl (stereo not given) = active
CCOP(=S)(OCC)Oc1ccc([N+](=O)[O-])cc1 = inactive
CCC(=NOC/C=C/Cl)C1=C(O)CC(C2CCOCC2)CC1=O (stereo not given) = inactive
N#CSCSC#N = active

Let us examine a further case.
Each compound tested received a call. Report the one for CCC(=O)Nc1ccc(Cl)c(Cl)c1 . inactive

###

Target: Cellular tumor antigen p53 (Homo sapiens) (UniProt P04637)
Sequence (P04637 whole entry, looked up): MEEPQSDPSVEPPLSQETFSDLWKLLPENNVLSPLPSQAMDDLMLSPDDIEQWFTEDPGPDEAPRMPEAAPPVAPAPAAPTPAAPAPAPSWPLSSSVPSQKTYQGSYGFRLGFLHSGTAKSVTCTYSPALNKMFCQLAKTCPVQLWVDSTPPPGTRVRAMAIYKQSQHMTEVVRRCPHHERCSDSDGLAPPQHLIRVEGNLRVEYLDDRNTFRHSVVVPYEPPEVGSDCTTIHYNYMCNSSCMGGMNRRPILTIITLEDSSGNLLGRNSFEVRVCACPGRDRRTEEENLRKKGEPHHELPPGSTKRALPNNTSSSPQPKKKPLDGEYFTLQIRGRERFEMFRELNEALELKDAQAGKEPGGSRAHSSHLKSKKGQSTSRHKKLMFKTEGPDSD
Test: TOX21_p53_BLA_p2_ratio: Tox21 HCT-116 p53 Agonism Beta-lactamase Assay, Ratio, Phase 2 (AID 2283592)
Records with an inconclusive call do not appear. Calls of active or inactive are those of the source. Rule for the calls: active = hit-call score of the fitted dose curve at least 0.9, where 1 is the maximum; inconclusive = response in the unintended direction; inactive = score below 0.9.
Hi! Could you answer with just one of these? yes (1) for active, no (0) for inactive

Nc1nc(N)nc(NC2CC2)n1 = no (0)
C[N+]1(C)CCCCC1 = no (0)
CNC(=O)ON=C(SC)C(=O)N(C)C = no (0)

Each molecule tested received a call. Report the one for CCOP(=S)(OCC)OC(Cl)C(Cl)(Cl)Cl (stereo not drawn) . no (0)

Each molecule tested received a call. Report the one for COc1cc(OC)nc(Sc2cccc(Cl)c2C(=O)O)n1 . no (0)

Each molecule tested received a call. Report the one for CN(C)NC(=O)CCC(=O)O . no (0)

Each molecule tested received a call. Report the one for CCC(CC)Nc1c([N+](=O)[O-])cc(C)c(C)c1[N+](=O)[O-] . no (0)

Each molecule tested received a call. Report the one for C#CCC1=C(C)C(OC(=O)C2C(C=C(C)C)C2(C)C)CC1=O (stereo not drawn) . yes (1)

Each molecule tested received a call. Report the one for CC1(C(=O)Nc2ccc(O)c(Cl)c2Cl)CCCCC1 . no (0)

Each molecule tested received a call. Report the one for CCCOCC(=Nc1ccc(Cl)cc1C(F)(F)F)n1ccnc1 . yes (1)

Each molecule tested received a call. Report the one for CON=C(C(=O)OC)c1ccccc1CON=C(C)c1cccc(C(F)(F)F)c1 . yes (1)

Each molecule tested received a call. Report the one for S=C1NCCN1 . no (0)

Each molecule tested received a call. Report the one for COP(=O)(NC(C)=O)SC (stereo not drawn) . no (0)

###

Target: Cellular tumor antigen p53 (Homo sapiens) (UniProt P04637)
Test: TOX21_p53_BLA_p5_ratio: Tox21 HCT-116 p53 Agonism Beta-lactamase Assay, Ratio, Phase 5 (AID 2283599)
Results filed as inconclusive are left out. Active and inactive are the calls of the source. How the source made its calls: active means hit-call score of the fitted dose curve at least 0.9, where 1 is the maximum; inconclusive means response in the unintended direction; inactive means score below 0.9.
Hi! Could you answer with just one of these? active, inactive

Look over these answered cases.
Cc1cc(C2CC2)nc(Nc2ccccc2)n1 = inactive
CCOP(=O)(OCC)Oc1cc(C)nc(C(C)C)n1 = inactive
CCNc1nc(Cl)nc(NC(C)(C)C#N)n1 = inactive
CSC1=N[C@@](C)(c2ccccc2)C(=O)N1Nc1ccccc1 = inactive
CCCCSP(=O)(SCCCC)SCCCC = inactive

Each molecule tested received a call. Report the one for CN1COCN(Cc2cnc(Cl)s2)C1=N[N+](=O)[O-] . inactive

Each molecule tested received a call. Report the one for FC(F)C(F)(F)OCC(Cn1cncn1)c1ccc(Cl)cc1Cl (stereo not given) . inactive

Each molecule tested received a call. Report the one for C[N+]1(C)CCCCC1 . inactive

Each molecule tested received a call. Report the one for COP(=O)(OC)SCn1c(=O)oc2cc(Cl)cnc21 . active

Each molecule tested received a call. Report the one for CCC(CC)Nc1c([N+](=O)[O-])cc(C)c(C)c1[N+](=O)[O-] . inactive

Each molecule tested received a call. Report the one for CC(=NC#N)N(C)Cc1ccc(Cl)nc1 . inactive

Each molecule tested received a call. Report the one for CCOP(=O)(NC(C)C)Oc1ccc(SC)c(C)c1 (stereo not given) . inactive

Each molecule tested received a call. Report the one for CC(COc1ccc(Oc2ccccc2)cc1)Oc1ccccn1 (stereo not given) . inactive

Each molecule tested received a call. Report the one for CC1(C(=O)Nc2ccc(O)c(Cl)c2Cl)CCCCC1 . inactive

Each molecule tested received a call. Report the one for CNC(=O)Oc1cccc2c1OC(C)(C)O2 . inactive

###

Read-out: Interleukin-1 alpha (IL1a), IL1A (gene 3552)
Test: BSK_LPS_IL1a: BioMAP Diversity Plus: LPS Assay for Interleukin-1 alpha (IL1a) Biomarker Activity (AID 2283080)
Conditions: primary human HUVEC with PBMC; actives raise or lower the signal
Active and inactive are the calls of the source. How the source made its calls: active means hit-call score of the fitted dose curve at least 0.9, where 1 is the maximum; inactive means score below 0.9.
Hi! Could you answer with just one of these? YES = active, NO = inactive

Look over these answered cases.
CNC(=O)ON=C(C)SC = NO
CCOP(=S)(OCC)SCCSCC = NO
CCc1cccc(CC)c1N(COC)C(=O)CCl = YES

Let us examine a further case.
Each compound tested received a call. Report the one for CNC(=O)ON=C(SC)C(=O)N(C)C . NO

###

Assay: LTEA_HepaRG_LDH_cytotoxicity: Cytotoxicity Assessment in the Life Technologies and Expression Analysis (LTEA) Assay (AID 2283563)
Active and inactive are the calls of the source. The calls were made as follows: active = hit-call score of the fitted dose curve at least 0.9, where 1 is the maximum; inconclusive = response in the unintended direction; inactive = score below 0.9.
Hi! Could you answer with just one of these? Y for active, N for inactive

Look over these answered cases.
C=C(C)[C@H]1Cc2c(ccc3c2O[C@@H]2COc4cc(OC)c(OC)cc4[C@@H]2C3=O)O1 = Y
CCOP(=O)(OCC)Oc1cc(C)nc(C(C)C)n1 = N

Let us examine a further case.
Each compound tested received a call. Report the one for CC(C)N(C(=O)SCC(Cl)=C(Cl)Cl)C(C)C . N

###

Read-out: Matrix Metallopeptidase 9 (MMP9), MMP9 (gene 4318)
Experiment: BSK_KF3CT_MMP9: BioMAP Diversity Plus: KF3CT Assay for Matrix Metallopeptidase 9 (MMP9) Biomarker Activity (AID 2283074)
Conditions: primary human keratinocytes with fibroblasts; actives raise or lower the signal
Activity calls are given as the source filed them. The calls were made as follows: active = hit-call score of the fitted dose curve at least 0.9, where 1 is the maximum; inactive = score below 0.9.
Hi! Could you answer with just one of these? Y = active, N = inactive

Look over these answered cases.
CSC1=N[C@@](C)(c2ccccc2)C(=O)N1Nc1ccccc1 = Y
CCCOc1nn(C(=O)NS(=O)(=O)c2ccccc2C(=O)OC)c(=O)n1C = Y
CNC(=O)Oc1cccc2c1OC(C)(C)O2 = N
CCOP(=S)(OCC)Oc1ccc2c(C)c(Cl)c(=O)oc2c1 = N
CCOP(=S)(OCC)OC(Cl)C(Cl)(Cl)Cl (configuration not stated) = N

Each compound tested received a call. Report the one for N#CSCSC#N . Y

Each compound tested received a call. Report the one for O=C(O)c1cc(Oc2ccc(C(F)(F)F)cc2Cl)ccc1[N+](=O)[O-] . N

Each compound tested received a call. Report the one for CCOC(=O)COc1cc(-c2nn(C)c(OC(F)F)c2Cl)c(F)cc1Cl . N

Each compound tested received a call. Report the one for CCCOCC(=Nc1ccc(Cl)cc1C(F)(F)F)n1ccnc1 . Y

Each compound tested received a call. Report the one for CCc1cnc(C2=NC(C)(C(C)C)C(=O)N2)c(C(=O)O)c1 (configuration not stated) . N

Each compound tested received a call. Report the one for CCC(=O)Nc1ccc(Cl)c(Cl)c1 . N

Each compound tested received a call. Report the one for CSc1nc(NC(C)C)nc(NC(C)C)n1 . N
